# SYSTEM_NAME: human OX2R (Homo sapiens, UniProt O43614)
# Construct: expressed in transfected cells; host or cells: CHO (Chinese hamster ovary) cells, grown under G418 selection
# Sequence (O43614 whole entry): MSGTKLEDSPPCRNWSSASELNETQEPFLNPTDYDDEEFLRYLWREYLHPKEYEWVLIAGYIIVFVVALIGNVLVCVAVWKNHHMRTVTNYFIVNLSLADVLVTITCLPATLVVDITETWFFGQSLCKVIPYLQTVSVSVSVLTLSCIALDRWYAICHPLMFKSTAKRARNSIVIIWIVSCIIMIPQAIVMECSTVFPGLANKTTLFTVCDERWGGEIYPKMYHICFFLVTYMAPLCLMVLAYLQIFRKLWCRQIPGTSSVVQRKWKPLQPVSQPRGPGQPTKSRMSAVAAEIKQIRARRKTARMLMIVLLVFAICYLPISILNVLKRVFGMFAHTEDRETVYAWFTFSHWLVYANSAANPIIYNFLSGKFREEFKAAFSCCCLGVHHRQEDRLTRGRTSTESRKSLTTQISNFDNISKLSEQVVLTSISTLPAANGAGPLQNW
# ASSAY_PROTOCOL: IPOne (IP-1 accumulation) orexin receptor agonist assay in CHO cells expressing human OX2R
# Type: cell-based
# EXPERIMENTAL_PARAMETERS: hOX2R IP-One assay, percent of mean max effect of a reference compound at 1 uM with 100% activity established by comparison to Orexin A
VALUE_TYPE: Emax (%)
Answers are plain numbers, in %.

COC(=O)N1[C@@H]2CC[C@@H]2[C@H](NS(C)(=O)=O)[C@@H]1CO[C@H]1CC[C@@H](c2ccccc2)CC1: 103
COC(=O)N1[C@@H]2COC[C@@H]2[C@H](NS(=O)(=O)CF)[C@@H]1CO[C@H]1CC[C@@H](c2cccc(F)c2)CC1: 102
COC(=O)N1[C@@H]2COC[C@@H]2[C@H](NS(=O)(=O)N(C)C)[C@@H]1CO[C@H]1CC[C@@H](c2cccc(F)c2)CC1: 101
COC(=O)N1[C@@H]2CCC[C@@H]2[C@H](NS(C)(=O)=O)[C@@H]1CO[C@H]1CC[C@@H](c2cccc(F)c2)CC1: 101

# ---- query compound ----
**Query** # value lookup — system human OX2R (Homo sapiens, UniProt O43614), readout Emax, item "COC(=O)N1[C@@H]2COC[C@@H]2[C@H](NS(C)(=O)=O)[C@@H]1CO[C@H]1CC[C@@H](c2cccc(F)c2)CC1"
**Result** 101
